Where these numbers come from: paper PMC9482650

# measured target: TJP1_3, Q07157
# Sequence (Q07157 416-512): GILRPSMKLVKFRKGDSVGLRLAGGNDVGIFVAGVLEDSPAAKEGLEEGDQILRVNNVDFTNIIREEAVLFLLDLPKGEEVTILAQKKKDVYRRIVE
# experiment summary: holdup assay
# Design: key: below the threshold = too weak to quantify, mostly under pKd 3.1 to 4
# conditions: plain residues with an end cap or a label only (N-terminal biotin on a linker: ado-ado)
measure: pKd

binder	value reported
KLQNPNQSVV [TYRP1, P17643]	below the threshold
IQISELETNV [SLC1A7, O00341]	below the threshold
KKTPVSRSHL [SLC22A3, O75751]	below the threshold
KEKASTETEC [TRPM1, Q7Z4N2]	below the threshold
